Reported melting point values follow for various molecules

Examples from the recorded data:
Request the reported melting point associated with COC(=O)c1ccc(CCN(C)CCCC(C#N)(C(=O)OC)c2ccc(OC)c(OC)c2)cc1 (stereo not given)
80 to 83 °C

Try this molecule too: O=C(O)c1ccc(/C=C\C(c2cc(Cl)c(Cl)c(Cl)c2)C(F)(F)F)cc1Br (stereo not given)
54 to 64 °C

Try this molecule next: COc1cc(C=CCn2cncn2)ccc1OCc1ccccc1
70 to 72 °C

Next:
What value of melting point has been reported for the following molecule? CCc1cc(C)cc(C)c1C1C(=O)N2CCN(OC)CCN2C1=O
213 to 215 °C

Another molecule to check: CCOc1cc(Oc2ccc(C(F)(F)F)cn2)ccc1CCCO
50 to 51 °C

---

readout.name: melting point

Using the record for CNc1nc(-c2ccc(SC)cc2)n(-c2ccc(C)cc2)c(=O)c1C#N , report its melting point.
268 to 271 °C

And for CCCN(CC)C(C)CN1CCc2c(c(=O)oc3cc(OC)ccc23)C1 (centres undefined) ?
100 to 101 °C

---

readout.name: melting point

# annotated cases, reported melting point shown
Quick one: melting point for CNC(=S)N(C)Cc1cnc(Cl)s1 ?
129 to 131 °C

Can you check CCOC(=O)c1ccc(N2CCN(C)CC2)nn1 next?
106 °C

For O=C1COCCN1c1ccc([N+](=O)[O-])cc1 then?
150 to 152 °C

Same question for CC(C)(C)c1cc(CCc2ccccc2NC(=O)NCC2(c3ccc4c(c3)OCO4)CCCC2)cc(C(C)(C)C)c1O please.
188 to 189 °C

Check O=C1NNC2=CC(=O)N(c3ccccc3)c3cc(Cl)ccc3N12 too.
110 to 112 °C

Continuing:
For the compound shown here, CCCCCCCCCCCCCCOc1ccc(C(=O)Nc2ccc(CO)cc2)cc1 , give the reported melting point.
140 to 145 °C

---

Quick reference: melting point of the listed items.

Recorded melting point of O=C(Nc1ccc2ccc(-c3cccc(Br)c3)nc2n1)c1ccccc1 , please.
204 to 206 °C

Continue with the next molecule.
Query (molecule): COc1cccc(-c2ccccc2)c1C(O)=S ; field requested: melting point
97 to 98 °C

---

readout.name: melting point

melting point for CCOC(=O)Cc1ccc([N+](=O)[O-])c(OCC(F)(F)F)c1 ?
76 to 77 °C

Here is the next molecule: O=C1N(Cc2ccc(Cl)s2)c2cccc(-c3ccoc3)c2C12COc1cc3c(cc12)OCO3 (centres undefined)
166 to 168 °C

Entry to check: Cn1c(=O)cc(-c2cccc(Cl)c2)c2cc(C(=O)c3cccc(I)c3)ccc21
235 °C

Others:
What value of melting point has been recorded for this entry: CC(Sc1cc(C(C)(C)C)c(O)c(C(C)(C)C)c1)C(=O)CC(C)(O)C(C)Sc1cc(C(C)(C)C)c(O)c(C(C)(C)C)c1 (centres undefined)
123 to 128 °C

Would you mind doing CCCCCCCCc1ccc(OCC(=O)Cn2ccc3cc(C(=O)O)ccc32)cc1 as well?
122 to 124 °C

Likewise for CCOC(=O)COc1ccc(NC(=O)NC(=O)c2ccc(C#N)cc2)cc1 ?
200 to 203 °C

Then this molecule: Cc1cn(-c2ccc(F)cc2)c2ccc(Br)cc12
97 to 98 °C

What do you get for NC(=O)/C=C/C1=CC=CC(F)(C(F)(F)F)C1 (centres undefined) ?
121 to 122 °C

Would you kindly repeat that for Cn1cc2c(C=O)c(Br)ccc2n1 ?
137 to 140 °C
